# Test system: B cell
# ASSAY REMARKS: B cell proliferation
# Format: cell-based

| COMPOUND | EC50 |
| --- | --- |
| CCC(Nc1ncnc2[nH]cnc12)c1cc2cccc(C)c2c(=O)n1-c1ccc(F)cc1 (stereo not drawn) [Compound 223] | < 0.1 µM |
| Cc1ccccc1-n1c(Cn2nc(-c3ccc(Cl)c(O)c3)c3c(N)ncnc32)cc2cccc(C)c2c1=O [Compound 23] | < 0.1 µM |
| Cc1cccc2cc(Cn3nc(-c4ccc5nc(N)oc5c4)c4c(N)ncnc43)n(-c3ccccc3)c(=O)c12 [Compound 235] | < 10 µM |
| Cc1cccc2cc(Cn3nc(-c4ccc5oc(N)nc5c4)c4c(N)ncnc43)n(C3CCC3)c(=O)c12 [Compound 208] | < 0.1 µM |
| CC(=O)Nc1nc2ccc(-c3nn(Cc4cc5cccc(C)c5c(=O)n4-c4ccccc4)c4ncnc(N)c34)cc2s1 [Compound 177] | < 0.1 µM |
| Cc1cccc2cc(Cn3nc(C#C[C@@H](C)O)c4c(N)ncnc43)n(-c3ccccc3Cl)c(=O)c12 [Compound 98] | < 1 µM |
| CC(=O)Nc1nc2ccc(-c3nn(Cc4cc5cccc(C)c5c(=O)n4C)c4ncnc(N)c34)cc2s1 [Compound 153] | < 0.1 µM |
| CCc1ccccc1-n1c(Cn2nc(-c3cc(O)cc(F)c3)c3c(N)ncnc32)cc2cccc(C)c2c1=O [Compound 89] | < 0.1 µM |
| Cc1ccccc1-n1c(Cn2nc(-c3ccc4nc(N)sc4c3)c3c(N)ncnc32)cc2cccc(C)c2c1=O [Compound 145] | < 1 µM |
| Cc1cccc2cc([C@H](C)Nc3ncnc4[nH]cnc34)n(C3CCC3)c(=O)c12 [Compound 198] | < 0.1 µM |
| COc1ccccc1-n1c(Cn2nc(-c3cc(O)cc(F)c3)c3c(N)ncnc32)cc2cccc(C)c2c1=O [Compound 84] | < 0.1 µM |
| CCc1ccccc1-n1c(Cn2nc(-c3cccc(O)c3)c3c(N)ncnc32)cc2cccc(C)c2c1=O [Compound 88] | < 0.1 µM |
| CCn1c(Cn2nc(-c3cccc(O)c3)c3c(N)ncnc32)cc2cccc(C)c2c1=O [Compound 126] | < 0.1 µM |
| Cc1cccc2cc(Cn3nc(C#C[C@@H](C)O)c4c(N)ncnc43)n(-c3ccccc3F)c(=O)c12 [Compound 28] | < 1 µM |
| Cc1cccc2cc([C@H](C)Nc3ncnc4[nH]cnc34)n(-c3ccccc3)c(=O)c12 [Compound 196] | < 0.1 µM |
| Cc1cccc2cc(Cn3nc(-c4ccc5sc(N)nc5c4)c4c(N)ncnc43)n(-c3ccccc3)c(=O)c12 [Compound 277] | < 0.1 µM |
| Cc1cccc2cc(C(C)Nc3ncnc4[nH]cnc34)n(CCN3CCOCC3)c(=O)c12 (stereo not drawn) [Compound 232] | < 0.1 µM |
| Nc1ncnc2c1c(I)nn2Cc1cc2cccc(Cl)c2c(=O)n1C1CC1 [Compound 139] | < 0.1 µM |
| Cc1ccccc1-n1c(Cn2nc(C(F)F)c3c(N)ncnc32)cc2cccc(C)c2c1=O [Compound 306] | < 0.1 µM |
| CC(=O)Nc1nc2cc(-c3nn(Cc4cc5cccc(C)c5c(=O)n4-c4ccccc4C)c4ncnc(N)c34)ccc2o1 [Compound 251] | < 0.1 µM |
| Cc1cccc2cc(Cn3nc(-c4ccc5oc(N)nc5c4)c4c(N)ncnc43)n(-c3ccccc3)c(=O)c12 [Compound 205] | < 0.1 µM |
| Cc1cccc2cc(C(C)Nc3ncnc4[nH]cnc34)n(-c3ccccc3F)c(=O)c12 (stereo not drawn) [Compound 167] | < 0.1 µM |
| Cc1cccc2cc(C(C)Nc3ncnc4[nH]cnc34)n(CCN3CCCC3)c(=O)c12 (stereo not drawn) [Compound 233] | < 0.1 µM |
| Cc1ccccc1-n1c(Cn2nc(C(N)=O)c3c(N)ncnc32)cc2cccc(C)c2c1=O [Compound 298] | < 0.1 µM |
| Cc1cccc2cc(Cn3nc(-c4cc(O)cc(F)c4)c4c(N)ncnc43)n(C3CC3)c(=O)c12 [Compound 101] | < 0.1 µM |
| Cc1cccc2cc(Cn3nc(-c4cc(O)cc(F)c4)c4c(N)ncnc43)n(-c3ccccc3F)c(=O)c12 [Compound 3] | < 0.1 µM |
| Cc1cccc2cc(C(C)Nc3ncnc4[nH]cnc34)n(C3CCN(C)CC3)c(=O)c12 (stereo not drawn) [Compound 227] | < 0.1 µM |
| Cc1cccc2cc(Cn3nc(-c4cc(O)cc(F)c4)c4c(N)ncnc43)n(C3CCCC3)c(=O)c12 [Compound 63] | < 0.1 µM |
| Cc1cccc2cc(Cn3nc(I)c4c(N)ncnc43)n(C3CCC3)c(=O)c12 [Compound 105] | < 1 µM |
| Cc1cccc2cc(C(C)Nc3ncnc4[nH]cnc34)n(-c3ccc(F)cc3)c(=O)c12 (stereo not drawn) [Compound 213] | < 0.1 µM |
